Quick list: GI50 per entry.
# Test system: CCRF-CEM
# protocol: NCI tumour cell line growth inhibition, 48 h
The source made the active and inactive calls. Cut-off read from the data, not from the text of the source: active = GI50 up to about 1.1 µM and inactive = higher.
property: GI50

1) Clc1nc2n(c1/C=C/c1cccs1)CCS2    10.9 µM (inactive)
2) CN(C)c1nc(Oc2nc(N(C)C)nc(N(C)C)n2)nc(N(C)C)n1    > 100 µM (inactive)
3) COc1ccc(/C=C/c2sc3ccccc3[n+]2CCCCI)cc1OC    3.49 µM (inactive)
4) CCOP(=O)(OCC)C(C(=O)OC)C(=O)C(=O)Nc1ccc(Cl)cc1Cl (stereo unspecified)    > 100 µM (inactive)
5) COc1ccccc1/C=N/Nc1nnc2c3ccccc3c3ncccc3c2n1    17.6 µM (inactive)
6) COCN/C(N)=N/C#N    > 100 µM (inactive)

---

# System: SK-MEL-28
# protocol: NCI tumour cell line growth inhibition, 48 h
Active and inactive are the calls of the source. Cut-off read from the data, not from the text of the source: active = GI50 up to about 1.1 µM and inactive = higher.
property: GI50

1) C=C1C[C@@H](O)[C@@H](Br)C(C)(C)[C@]12CCC(C)(Br)C(Cl)C2 (stereo not given in full)    > 50 µM (inactive)
2) O=C(/C=C/C=C/c1ccccc1)c1ccc2c(c1)CCCC2    > 100 µM (inactive)
3) CN(C)CCCn1c(Cc2ccc(Cl)cc2)nc2cc(C(F)(F)F)ccc21    17.9 µM (inactive)
4) NCCN1C(=O)c2cc(Cl)c(Cl)cc2C1(O)c1ccc(Cl)cc1 (stereo not given)    1.75 µM (inactive)
5) CCOc1cc(NC(C)=O)ccc1C(=O)NN1C(=O)C(Oc2ccccc2)C1c1ccccc1 (stereo not given)    > 100 µM (inactive)
6) CCOC(=O)CCNC(=O)c1cc(C)cc2c1Oc1c(cc(C)cc1C(=O)NCCC(=O)OCC)S2    > 100 µM (inactive)
7) Cc1cccc2c(=O)c3cccc([C@H](C)C(=O)O)c3oc12    > 100 µM (inactive)
8) c1ccc2c(c1)cc1ccc3cccc4ccc2c1c34    > 100 µM (inactive)
9) COc1ccc(/C=N/c2ccc(-c3nc4ccccc4s3)cc2)cc1OC    38 µM (inactive)
10) CCOC1OC(CO[Si](C)(C)C(C)(C)C)C(O)CC1n1ccc(=O)[nH]c1=O (stereo not given)    61.4 µM (inactive)

---

# System: M14
# protocol: NCI tumour cell line growth inhibition, 48 h
Active and inactive are the calls of the source. No stated cut-off is given here; in the data, active = GI50 up to about 1.1 µM and inactive = higher.
Outcomes: y (active), n (inactive)

1) C[C@]12CC[C@H]3[C@@H](CC[C@]4(O)C[C@@H](O)CC[C@]34CO)[C@@]1(O)CC[C@@H]2C1=CC(=O)OC1    n
2) Clc1ccc(C2SCc3nc4ccccc4n32)c(Cl)c1 (configuration not stated)    n
3) CNc1ccc(C)cc1S(=O)(=O)c1ccccc1[N+](=O)[O-]    n
4) O=C1NC2=NN=C(c3ccc(Br)cc3)CN2NC12c1ccccc1-c1ccccc12    n
5) COc1cc(=O)n2c3ccccc3n(C)c2c1C#N    n
6) Nc1nc(Cl)cc(NCC2(CO)CCCC2)n1    n
7) N#Cc1nc(-c2cccc(-c3nc(C#N)c(N)o3)n2)oc1N    n
8) O=C(Nc1cc(Cl)c(Cl)cc1Cl)C(=O)C(C(=O)c1ccccc1)C1OC(=O)c2ccccc21 (configuration not stated)    n
9) CCOC1OC(CO[Si](C)(C)C(C)(C)C)C(O)CC1n1ccc(=O)[nH]c1=O (configuration not stated)    n
10) O=C(O)CC(NC(=O)C(F)(F)F)C(=O)NC1Cc2ccccc2OC1=O (configuration not stated)    n
11) CCOP(=O)(OCC)C(C(=O)OC)C(=O)C(=O)Nc1ccc(Cl)cc1Cl (configuration not stated)    n
12) O=C(N/N=C(\c1ccccc1)c1ccccn1)NC1CCCCC1    n
13) c1ccc(Nc2nnc(-c3nsc4ccccc34)o2)cc1    n
14) Clc1nc2n(c1/C=C/c1cccs1)CCS2    n
15) Cc1cc(C)cc(Nc2nnc3n2S(=O)(=O)c2cc(C)c(Cl)cc2S3)c1    n
16) Cc1ccc(NC(=O)NC(=O)c2ccc([N+](=O)[O-])cc2[N+](=O)[O-])cc1Oc1ncc(Cl)cn1    y
17) Cc1ccccc1C(CCCO)C(=O)O (configuration not stated)    n
18) CC(O)C1OC(n2ccc(=O)[nH]c2=O)CC1n1cncn1 (configuration not stated)    n
19) O=S1(=O)c2ccccc2Oc2ccc(C(/C=N/O)=N/O)cc21    n
20) COC(=O)C(CSSC[C@H](N/C(C)=C/C(C)=O)C(=O)OC)N/C(C)=C/C(C)=O (some centres not stated)    n
21) N#C/C(=C\c1cc(O)ccc1O)C(N)=O    n
22) N#Cc1ncn(-c2ccccc2)c1N    n
